target of assay: EGFR A763insLQEA (Homo sapiens, UniProt P00533, INS763LQEA)
Construct: expressed in transfected cells; host or cells: Ba/F3 cells, retroviral pBabe-Puro vector
test protocol: Ba/F3 drug screening, Cell Titer Glo, IC50 Mut/WT
Type: cell-based
conditions used: Classical-Like, 72 hours
metric name: ratio of IC50 for cells with mutant EGFR to IC50 for cells with wildtype EGFR (Mut/WT)

I. C=CC(=O)Nc1cc(Nc2ncc(C(=O)OC(C)C)c(-c3cn(C)c4ccccc34)n2)c(OC)cc1N(C)CCN(C)C
II. COc1cc2ncnc(Nc3ccc(F)c(Cl)c3)c2cc1NC(=O)/C=C/CN1CCCCC1
III. Cc1cc(C(=O)Nc2nc3cccc(Cl)c3n2[C@@H]2CCCCN(C(=O)/C=C/CN(C)C)C2)ccn1
Please put the 3 molecules above in a list ordered by falling ratio of IC50 for cells with mutant EGFR to IC50 for cells with wildtype EGFR (Mut/WT). Please list the labels in the order you were asked to rank them.
III, I, II
(III: 0.05507, I: 0.03374, II: 0.001484)

* * *

target of assay: EGFR L858R/L718V (Homo sapiens, UniProt P00533, L718V/L858R)
Construct: host or cells: Ba/F3
test protocol: Ba/F3 drug screening, Cell Titer Glo, IC50 Mut/WT
Assay type: cell-based
conditions used: PACC; L858R/L718V; Ba/F3; 72 hours
metric name: ratio of IC50 for cells with mutant EGFR to IC50 for cells with wildtype EGFR (Mut/WT)

{"molecule": "COc1cc2ncnc(Nc3cccc(Cl)c3F)c2cc1OC(=O)N1CCN(C)C[C@H]1C [AZD3759]", "test result": 0.2408}
{"molecule": "CNC(=O)CN1CCC(Oc2cc3c(Nc4cccc(Cl)c4F)ncnc3cc2OC)CC1 [Sapatinib]", "test result": 0.05575}

a. CN(C)C/C=C/C(=O)Nc1cc2c(Nc3ccc(Cl)c(Br)c3)ncnc2cn1 [Tarlox-TKI]
b. COc1cc2ncnc(Nc3ccc(F)c(Cl)c3)c2cc1NC(=O)/C=C/CN1CCCCC1 [Dacomitinib]
Which of the two items, a and b , has the greater recorded ratio of IC50 for cells with mutant EGFR to IC50 for cells with wildtype EGFR (Mut/WT)? Label of pick, please.
a
(a: 0.3578, b: 0.001529)

* * *

target of assay: EGFR S720P (Homo sapiens, UniProt P00533, S720P)
Construct: expressed in transfected cells; host or cells: Ba/F3 cells, retroviral pBabe-Puro vector (vector made by GeneScript from EGFR WT)
test protocol: Ba/F3 drug screening, Cell Titer Glo, IC50 Mut/WT
Assay type: cell-based
conditions used: Classical-Like, 72 hours
metric name: ratio of IC50 for cells with mutant EGFR to IC50 for cells with wildtype EGFR (Mut/WT)

{"compound": "C=CC(=O)N[C@H]1C=C(C)c2c(-c3cnc4ccccc4c3)c3c(N)ncnc3n2C1 [TAS 6417]", "test result": 0.01035}

P. C=CC(=O)Nc1cc(Nc2nccc(-c3c[nH]c4ccccc34)n2)c(OC)cc1N(C)CCN(C)C [AZ5104]
Q. C=CC(=O)N1CC[C@@H](Oc2nc(Nc3ccc(N4CCC(N5CCN(C)CC5)CC4)cc3)c(C(N)=O)nc2CC)C1 [Naquotinib]
Hi! Which is lower in terms of ratio of IC50 for cells with mutant EGFR to IC50 for cells with wildtype EGFR (Mut/WT), the first one P or the second one Q ? Label of pick, please.
P

* * *

target of assay: EGFR S768dupSVD (Homo sapiens, UniProt P00533, DUP768-770)
Construct: expressed in transfected cells; host or cells: Ba/F3 cells, retroviral pBabe-Puro vector
test protocol: Ba/F3 drug screening, Cell Titer Glo, IC50 Mut/WT
Type: cell-based
conditions used: Ex20, 72 hours
metric name: ratio of IC50 for cells with mutant EGFR to IC50 for cells with wildtype EGFR (Mut/WT)

Some solved cases for reference:
{"structure smiles": "COc1cc2ncnc(Nc3cccc(Cl)c3F)c2cc1OC(=O)N1CCN(C)C[C@H]1C", "target of assay": "EGFR S768dupSVD (Homo sapiens, UniProt P00533, DUP768-770)", "test result": 3.075}
{"structure smiles": "C=CC(=O)Nc1cccc(Oc2nc(Nc3ccc(N4CCN(C)CC4)cc3)nc3ccsc23)c1", "target of assay": "EGFR S768dupSVD (Homo sapiens, UniProt P00533, DUP768-770)", "test result": 0.5533}
{"structure smiles": "C=CC(=O)Nc1cc(Nc2ncc(C(=O)OC(C)C)c(-c3cn(C)c4ccccc34)n2)c(OC)cc1N(C)CCN(C)C", "target of assay": "EGFR S768dupSVD (Homo sapiens, UniProt P00533, DUP768-770)", "test result": 0.2515}
{"structure smiles": "CNC(=O)CN1CCC(Oc2cc3c(Nc4cccc(Cl)c4F)ncnc3cc2OC)CC1", "target of assay": "EGFR S768dupSVD (Homo sapiens, UniProt P00533, DUP768-770)", "test result": 2.666}
{"structure smiles": "CN(C)C/C=C/C(=O)Nc1cc2c(Nc3ccc(Cl)c(Br)c3)ncnc2cn1", "target of assay": "EGFR S768dupSVD (Homo sapiens, UniProt P00533, DUP768-770)", "test result": 0.3065}

I. C=CC(=O)Nc1cc(Nc2nccc(-c3c[nH]c4ccccc34)n2)c(OC)cc1N(C)CCN(C)C
II. C=CC(=O)Nc1cc(Nc2nccc(-n3cc(CN(C)C)c(-c4ccccc4)n3)n2)c(OC)cc1N1CCOCC1
Which of the two items, I and II , has the greater recorded ratio of IC50 for cells with mutant EGFR to IC50 for cells with wildtype EGFR (Mut/WT)? Label of pick, please.
II

* * *

target of assay: EGFR S784F (Homo sapiens, UniProt P00533, S784F)
Construct: expressed in transfected cells; host or cells: Ba/F3 cells, retroviral pBabe-Puro vector (vector made by GeneScript from EGFR WT)
test protocol: Ba/F3 drug screening, Cell Titer Glo, IC50 Mut/WT
Assay type: cell-based
conditions used: Classical-Like, 72 hours
metric name: ratio of IC50 for cells with mutant EGFR to IC50 for cells with wildtype EGFR (Mut/WT)

{"structure smiles": "Cc1cc(C(=O)Nc2nc3cccc(Cl)c3n2[C@@H]2CCCCN(C(=O)/C=C/CN(C)C)C2)ccn1", "test result": 0.03107}
{"structure smiles": "C=CC(=O)Nc1cc(Nc2nccc(-n3cc(CN(C)C)c(-c4ccccc4)n3)n2)c(OC)cc1N1CCOCC1", "test result": 0.245}
{"structure smiles": "C=CC(=O)Nc1cc(Nc2nccc(-c3c[nH]c4ccccc34)n2)c(OC)cc1N(C)CCN(C)C", "test result": 0.01428}
{"structure smiles": "CN(C)C/C=C/C(=O)Nc1cc2c(Nc3ccc(Cl)c(Br)c3)ncnc2cn1", "test result": 0.01816}
{"structure smiles": "CNC(=O)CN1CCC(Oc2cc3c(Nc4cccc(Cl)c4F)ncnc3cc2OC)CC1", "test result": 0.08508}

1. C=CC(=O)Nc1cccc(Oc2nc(Nc3ccc(N4CCN(C)CC4)cc3)nc3ccsc23)c1
2. COc1cc2ncnc(Nc3ccc(F)c(Cl)c3)c2cc1NC(=O)/C=C/CN1CCCCC1
Hi! Which is lower in terms of ratio of IC50 for cells with mutant EGFR to IC50 for cells with wildtype EGFR (Mut/WT), the first one 1 or the second one 2 ? Label of pick, please.
2
(2: 0.08997, 1: 0.14)

* * *

target of assay: EGFR A763insFQEA (Homo sapiens, UniProt P00533, INS763FQEA)
Construct: expressed in transfected cells; host or cells: Ba/F3 cells, retroviral pBabe-Puro vector
test protocol: Ba/F3 drug screening, Cell Titer Glo, IC50 Mut/WT
Assay type: cell-based
conditions used: Classical-Like, 72 hours
metric name: ratio of IC50 for cells with mutant EGFR to IC50 for cells with wildtype EGFR (Mut/WT)

{"compound": "CNC(=O)CN1CCC(Oc2cc3c(Nc4cccc(Cl)c4F)ncnc3cc2OC)CC1 [Sapatinib]", "test result": 0.3137}
{"compound": "C=CC(=O)N[C@H]1C=C(C)c2c(-c3cnc4ccccc4c3)c3c(N)ncnc3n2C1 [TAS 6417]", "test result": 0.004982}

A. COc1cc2ncnc(Nc3ccc(F)c(Cl)c3)c2cc1NC(=O)/C=C/CN1CCCCC1 [Dacomitinib]
B. C=CC(=O)N1CC[C@@H](Oc2nc(Nc3ccc(N4CCC(N5CCN(C)CC5)CC4)cc3)c(C(N)=O)nc2CC)C1 [Naquotinib]
Hi! Which is lower in terms of ratio of IC50 for cells with mutant EGFR to IC50 for cells with wildtype EGFR (Mut/WT), the first one A or the second one B ? Label of pick, please.
A
(A: 0.0379, B: 0.1912)

* * *

target of assay: EGFR G719S T790M (Homo sapiens, UniProt P00533, G719S/T790M)
Construct: expressed in transfected cells; host or cells: Ba/F3
test protocol: Ba/F3 drug screening, Cell Titer Glo, IC50 Mut/WT
Type: cell-based
conditions used: T790M-like-3S, 72 hours
metric name: ratio of IC50 for cells with mutant EGFR to IC50 for cells with wildtype EGFR (Mut/WT)

Some solved cases for reference:
{"compound": "CNC(=O)CN1CCC(Oc2cc3c(Nc4cccc(Cl)c4F)ncnc3cc2OC)CC1 [Sapatinib]", "test result": 54.78}
{"compound": "C=CC(=O)N[C@H]1C=C(C)c2c(-c3cnc4ccccc4c3)c3c(N)ncnc3n2C1 [TAS 6417]", "test result": 0.032}

a. C=CC(=O)N1CC[C@@H](Oc2nc(Nc3ccc(N4CCC(N5CCN(C)CC5)CC4)cc3)c(C(N)=O)nc2CC)C1 [Naquotinib]
b. COc1cc2ncnc(Nc3cccc(Cl)c3F)c2cc1OC(=O)N1CCN(C)C[C@H]1C [AZD3759]
Which of the two items, a and b , has the greater recorded ratio of IC50 for cells with mutant EGFR to IC50 for cells with wildtype EGFR (Mut/WT)? Label of pick, please.
b

src = patent US20240384350A1
